Values from patent US6479435B1

The compounds listed here are annotated with their AMARE phytotoxicity rating (0-100).
Tested on: redroot pigweed (Amaranthus retroflexus, AMARE)
assay name: Post-emerge greenhouse herbicide test, phytotoxicity rating
Assay type: in vivo
condition details: 500 g al/ha, 14 days after application

- compound: "O=c1n(CCCF)nnn1-c1cc(Oc2ncccn2)c(Cl)cc1F [Compound 6-10]"
  AMARE phytotoxicity rating (0-100): 100
- compound: "Cn1nc(-c2cc(Oc3ncccn3)c(Cl)cc2F)c(Cl)c1C(F)(F)F [Compound 1-7]"
  AMARE phytotoxicity rating (0-100): 100
- compound: "CCN1CC(=O)N(c2cc(Oc3ncccc3C(F)(F)F)c(Cl)cc2F)C1=O [Compound 8-1]"
  AMARE phytotoxicity rating (0-100): 40
- compound: "COc1nc(OC)nc(Oc2cc(-c3nc(C)n(C(F)F)c3Cl)c(F)cc2Cl)n1 [Compound 2-4]"
  AMARE phytotoxicity rating (0-100): 90
- compound: "Cc1nsc(Oc2cc(-n3nnn(CCCF)c3=O)c(F)cc2Cl)c1[N+](=O)[O-] [Compound 6-17]"
  AMARE phytotoxicity rating (0-100): 0

# AMARE phytotoxicity rating (0-100) lookup, item O=c1sc(=Nc2cc(Oc3ncccc3C(F)(F)F)c(Cl)cc2F)n2n1CCCC2 [Compound 7-1]
100

Tell me the measured AMARE phytotoxicity rating (0-100) of COc1nc(OC)nc(Oc2cc(-c3nn(C)c(C(F)(F)F)c3Cl)c(F)cc2Cl)n1 [Compound 1-8] , please.
100

May I ask what AMARE phytotoxicity rating (0-100) has been recorded for O=c1n(-c2cc(Oc3ccccc3)c(Cl)cc2F)c(=S)n2n1CCCC2 [Compound 8-5] ?
100

Please look up its AMARE phytotoxicity rating (0-100): N#Cc1ccccc1Oc1cc(-n2c(=O)n3n(c2=S)CCCC3)c(F)cc1Cl [Compound 8-7]
100

// AMARE phytotoxicity rating (0-100) lookup, key: Cn1c(C(F)(F)F)nc(-c2cc(Oc3ncccc3C(F)(F)F)c(Cl)cc2F)c1Cl [Compound 2-2]
95

Field request: AMARE phytotoxicity rating (0-100) | item: Cn1nc(-c2cc(Oc3cccc(F)n3)c(Cl)cc2F)c(Cl)c1C(F)(F)F [Compound 1-5]
100

Form field: reported AMARE phytotoxicity rating (0-100) of O=c1n(CCCF)nnn1-c1cc(Oc2ncccc2C(F)(F)F)c(Cl)cc1F [Compound 6-6]
95

Bench note: what AMARE phytotoxicity rating (0-100) did CCN1CC(=O)N(c2cc(Oc3ncccn3)c(Cl)cc2F)C1=O [Compound 8-2] show?
100

====

Below is a list of entries, each paired with its recorded crop damage rating RICE value.
Test system: upland rice (Oryza sp., var.Tebonnet, RICE)
assay name: Pre-emerge greenhouse test, crop damage rating
Format: in vivo
condition details: 1000 g ai/ha, 14 days after application, rating scale 0-100
Field format: numeric only.

# annotated cases, reported crop damage rating RICE shown
- molecule: "Nc1ccc(Oc2cc(-n3c(=O)cc4n(c3=O)CCC4)c(F)cc2Cl)cc1 [Compound 5-3]"
  crop damage rating RICE: 20
- molecule: "CCOC(=O)C(C)Oc1ccc(Oc2cc(-n3c(=O)cc4n(c3=O)CCC4)c(F)cc2Cl)cc1 (stereo not shown) [Compound 5-6]"
  crop damage rating RICE: 80
- molecule: "N#Cc1ccc(Oc2cc(-n3c(=O)cc4n(c3=O)CCC4)c(F)cc2Cl)nc1 [Compound 5-11]"
  crop damage rating RICE: 80
- molecule: "O=c1cc2n(c(=O)n1-c1cc(Oc3ncccc3[N+](=O)[O-])c(Cl)cc1F)CCC2 [Compound 5-8]"
  crop damage rating RICE: 50
- molecule: "N#Cc1cccnc1Oc1cc(-n2c(=O)cc3n(c2=O)CCC3)c(F)cc1Cl [Compound 5-9]"
  crop damage rating RICE: 50

# input molecule: O=c1cc2n(c(=O)n1-c1cc(Oc3ccc([N+](=O)[O-])cc3)c(Cl)cc1F)CCC2 [Compound 5-2] ; wanted: its crop damage rating RICE
50

I have this molecule here, O=c1cc2n(c(=O)n1-c1cc(Oc3ccccc3[N+](=O)[O-])c(Cl)cc1F)CCC2 [Compound 5-1] , and I need its recorded crop damage rating RICE.
70

====

System: ivyleaf morningglory (Ipomoea hederacea, IPOHE)
assay name: Pre-emerge greenhouse herbicide test, phytotoxicity rating
Assay type: in vivo
condition details: 1000 g ai/ha, 14 days after application, rating scale 0-100
Quick list: phytotoxicity rating IPOHE per entry.
Lab note: jot down the number only; don't add units.

# annotated cases, reported phytotoxicity rating IPOHE shown
- compound: "Nc1ccc(Oc2cc(-n3c(=O)cc4n(c3=O)CCC4)c(F)cc2Cl)cc1 [Compound 5-3]"
  assay result: 0
- compound: "O=c1cc2n(c(=O)n1-c1cc(Oc3ncccc3[N+](=O)[O-])c(Cl)cc1F)CCC2 [Compound 5-8]"
  assay result: 80
- compound: "O=c1cc2n(c(=O)n1-c1cc(Oc3ccc([N+](=O)[O-])cc3)c(Cl)cc1F)CCC2 [Compound 5-2]"
  assay result: 50

Now, please, on to the next compound.
Given the entry N#Cc1ccc(Oc2cc(-n3c(=O)cc4n(c3=O)CCC4)c(F)cc2Cl)nc1 [Compound 5-11] , report its measured phytotoxicity rating IPOHE.
80

====

System: soybean (Glycine max L., var. Pella 86, SOY)
assay name: Post-emerge greenhouse test, crop damage rating
Type: in vivo
condition details: 1000 g al/ha, 14 days after application
# SOY crop damage rating (0-100) >= 20 gives yes (1), anything below gives no (0)

Previously resolved entries follow.
- compound: "Nc1ccc(Oc2cc(-n3c(=O)cc4n(c3=O)CCC4)c(F)cc2Cl)cc1"
  assayed target: "soybean (Glycine max L., var. Pella 86, SOY)"
  assigned category: "no (0)"
- compound: "N#Cc1ccc(Oc2cc(-n3c(=O)cc4n(c3=O)CCC4)c(F)cc2Cl)nc1"
  assayed target: "soybean (Glycine max L., var. Pella 86, SOY)"
  assigned category: "yes (1)"
- compound: "O=c1cc2n(c(=O)n1-c1cc(Oc3ccccc3[N+](=O)[O-])c(Cl)cc1F)CCC2"
  assayed target: "soybean (Glycine max L., var. Pella 86, SOY)"
  assigned category: "yes (1)"

Determine whether this compound has SOY crop damage rating (0-100) no lower than 20: CCOC(=O)C(C)Oc1ccc(Oc2cc(-n3c(=O)cc4n(c3=O)CCC4)c(F)cc2Cl)cc1 (stereo not shown)
yes (1)

Would you say O=c1cc2n(c(=O)n1-c1cc(Oc3ccc([N+](=O)[O-])cc3)c(Cl)cc1F)CCC2 shows SOY crop damage rating (0-100) at minimum 20?
no (0)

# bool: SOY crop damage rating (0-100) of N#Cc1cccnc1Oc1cc(-n2c(=O)cc3n(c2=O)CCC3)c(F)cc1Cl >= 20
yes (1)

====

Tested on: large crabgrass (Digitaria sanguinalis, DIGSA)
assay name: Post-emerge greenhouse herbicide test, phytotoxicity rating
Assay type: in vivo
condition details: 63 g al/ha, 14 days after application
The compounds listed here are annotated with their DIGSA phytotoxicity rating (0-100).

- compound: "Nc1ccc(Oc2cc(-n3c(=O)n4n(c3=S)CCCC4)c(F)cc2Cl)cc1 [Compound 8-9]"
  DIGSA phytotoxicity rating (0-100): 0
- compound: "Cn1nc(-c2cc(Oc3ncccn3)c(Cl)cc2F)c(Cl)c1C(F)(F)F [Compound 1-7]"
  DIGSA phytotoxicity rating (0-100): 90
- compound: "CN1CC(=O)N(c2cc(Oc3ncccn3)c(Cl)cc2F)C1=O [Compound 8-3]"
  DIGSA phytotoxicity rating (0-100): 0
- compound: "Cn1c(C(F)(F)F)nc(-c2cc(Oc3ncccc3[N+](=O)[O-])c(Cl)cc2F)c1Cl [Compound 2-1]"
  DIGSA phytotoxicity rating (0-100): 0
- compound: "Cn1nc(-c2cc(Oc3nc(F)c(F)cc3F)c(Cl)cc2F)c(Cl)c1C(F)(F)F [Compound 1-6]"
  DIGSA phytotoxicity rating (0-100): 0

State the recorded DIGSA phytotoxicity rating (0-100) for this entry: N#Cc1ccccc1Oc1cc(-n2c(=O)n3n(c2=S)CCCC3)c(F)cc1Cl [Compound 8-7]
0

Look up DIGSA phytotoxicity rating (0-100) for this compound: Cc1nn(-c2cc(Oc3ncccn3)c(Cl)cc2F)c(=O)n1C(F)F [Compound 3-1]
80

Endpoint output: DIGSA phytotoxicity rating (0-100) of O=c1n(-c2cc(Oc3ccccc3)c(Cl)cc2F)c(=S)n2n1CCCC2 [Compound 8-5] . Value?
0

====

Test system: green foxtail (Setaria viridis, SETVI)
assay name: Post-emerge greenhouse herbicide test, phytotoxicity rating
Assay type: in vivo
condition details: Setaria viridis, post-emergence, 336 h, rate 500 g ai/ha, 14 days after application, scale 0-100
property measured: pest or weed control at 500 g/ha (%)
Respond numerically; units are % and should not be typed.

Use the examples below as a reference point.
- smiles repr: "O=c1n(-c2cc(Oc3ncccn3)c(Cl)cc2F)c(=S)n2n1CCCC2"
  pest or weed control at 500 g/ha (%): 100
- smiles repr: "Nn1c(C(F)(F)F)cc(=O)n(-c2cc(Oc3ccc([N+](=O)[O-])cc3C(F)(F)F)c(Cl)cc2F)c1=O"
  pest or weed control at 500 g/ha (%): 80
- smiles repr: "Nn1c(C(F)(F)F)cc(=S)n(-c2cc(Oc3ccc(Cl)cn3)c(Cl)cc2F)c1=O"
  pest or weed control at 500 g/ha (%): 50
- smiles repr: "Nn1c(C(F)(F)F)cc(=O)n(-c2cc(Oc3nc(F)c(F)cc3F)c(Cl)cc2F)c1=O"
  pest or weed control at 500 g/ha (%): 100

Please look at the following molecule next.
Request: pest or weed control at 500 g/ha, test system green foxtail (Setaria viridis, SETVI), entry Cc1nsc(Oc2cc(-n3c(=O)cc(C(F)(F)F)n(N)c3=O)c(F)cc2Cl)c1[N+](=O)[O-]
100
